Tested on: Staphylococcus hominis
assay_explanation: Minimum inhibitory concentration against Quinolone sensitive Staphylococcus hominis IP8203 Strain.
Assay type: functional
For each record, write down the corresponding MIC.

Ask: Find MIC for CSCc1cccc(N2CCN(c3cc4nc5c(cc4cc3F)c(=O)c(C(=O)O)cn5C)CC2)c1 on Staphylococcus hominis and write it down.
Reply: 4 µg/mL

Ask: Under Staphylococcus hominis, report MIC for C/C(=C\C(=O)OCCCCCCCCC(=O)[O-])C[C@@H]1OC[C@H](C[C@@H]2O[C@H]2[C@@H](C)[C@H](C)O)[C@@H](O)[C@H]1O.C/C(=C\C(=O)OCCCCCCCCC(=O)[O-])C[C@@H]1OC[C@H](C[C@@H]2O[C@H]2[C@@H](C)[C@H](C)O)[C@@H](O)[C@H]1O.[Ca+2]
Reply: 0.5 µg/mL

Ask: Enter MIC (test system Staphylococcus hominis) for CCn1cc(C(=O)O)c(=O)c2cc(F)c(N3CCN(C)CC3)cc21 [PEFLOXACIN]
Reply: 0.5 µg/mL

Ask: Provide Staphylococcus hominis MIC reading for Cn1cc(C(=O)O)c(=O)c2cc3cc(F)c(N4CCCCCCC4)cc3nc21 .
Reply: 1 µg/mL

Ask: Determine reported MIC for Cn1cc(C(=O)O)c(=O)c2cc3cc(F)c(NC4CCCCC4)cc3nc21 ; test system: Staphylococcus hominis.
Reply: 1 µg/mL

Ask: Give reported MIC for Cn1cc(C(=O)O)c(=O)c2cc3cc(F)c(N4CCN(Cc5ccc(F)cc5)CC4)cc3nc21 (Staphylococcus hominis)
Reply: 0.5 µg/mL

Ask: State recorded MIC with Staphylococcus hominis, entry C[N+](C)(C)CCO.Cn1cc(C(=O)[O-])c(=O)c2cc3cc(F)c(N4CCN(c5ccc(F)cc5)CC4)cc3nc21 , no comment.
Reply: 0.25 µg/mL
